- assay_details: Cytotoxicity against MDBK cells after 3 days by MTS/PMS assay
- Assay type: cell-based, Bos taurus
- reported_conditions: cattle
Below, each entry is listed with its recorded log10(CC50 at 72 h).
Scale: decimal log of CC50 at 72 h, CC50 at 72 h in µM.

Before answering, review these 4 worked examples.
compound=COc1cccc2c1CC/C2=N\NC(N)=S assay_value=2.91
compound="NC(=O)c1ncn([C@@H]2O[C@H](CO)[C@@H](O)[C@H]2O)n1 [RIBAVIRIN]" assay_value=1.73
compound=Cc1cc(C)c2c(c1Br)CC/C2=N\NC(N)=S assay_value=2.14
compound=Cc1cc2c(c(C)c1Cl)/C(=N/NC(N)=S)CC2 assay_value=1.91

Looking up Cc1ccc2c(c1)CC/C2=N\NC(N)=S , I see its log10(CC50 at 72 h) listed as 2.11

====

- assay_details: Selectivity index, ratio of CC50 for MDBK cells to EC50 for bovine viral diarrhoea virus type-1 NADL
- Type: toxicity, cell-based
- reported_conditions: cattle, read-out: Ratio CC50/EC50
Below, each entry is listed with its recorded selectivity ratio.
Form: value (number only, do not type unit).

Before answering, review these 5 worked examples.
input_smiles=COc1ccc2c(c1)/C(=N/NC(N)=S)CC2 assay_value=4.09
input_smiles=COc1ccc2c(c1OC)CC/C2=N\NC(N)=S assay_value=12.2
input_smiles=Cc1cc(C)c2c(c1Br)CC/C2=N\NC(N)=S assay_value=15.5
input_smiles=COc1cc2c(cc1OC)/C(=N/NC(N)=S)CC2 assay_value=80.3
input_smiles=Cc1ccc2c(c1)CC/C2=N\NC(N)=S assay_value=20.1

Looking up COc1ccc2c(c1)CC/C2=N\NC(N)=S , I see its selectivity ratio listed as 7.93

Looking up COc1cccc2c1CC/C2=N\NC(N)=S , I see its selectivity ratio listed as 3.39

Looking up Cc1cccc2c1CC/C2=N\NC(N)=S , I see its selectivity ratio listed as 20.3

Looking up NC(=S)N/N=C1\CCc2ccccc21 , I see its selectivity ratio listed as 8.6

Looking up Cc1cc2c(c(C)c1Cl)/C(=N/NC(N)=S)CC2 , I see its selectivity ratio listed as 10.9

====

- assay_details: Selectivity index, ratio of CC50 for MDBK cells to EC50 for bovine viral diarrhoea virus type-1 NADL
- Type: toxicity, cell-based
- reported_conditions: cattle, read-out: Ratio CC50/EC50
measurement_kind: selectivity ratio

input_smiles=NC(=S)N/N=C1\CCc2cc(Cl)ccc21 measurement_kind="selectivity ratio" assay_value="> 3.07"

Looking up NC(=S)N/N=C1\CCc2cc(Br)ccc21 , I see its selectivity ratio listed as > 8.29

Looking up Cc1cc2c(c(C)c1Cl)CC/C2=N\NC(N)=S , I see its selectivity ratio listed as < 6.53
